# Test system: B16F10 (malignant melanoma)
# experimental.details: Antiproliferative activity (CCK-8 cell viability), B16F10
# Format: cell-based
# run.parameters: Mus musculus, B16-F10, Compound concentration: 10 μM, 72 h, read-out: Antiproliferative activity in cancerous cells, B16F10 (inhibition of cell growth)
Recorded inhibition at 10 µM, one value per entry.

Reference set (5 entries):
1) CC1=C(CC(=O)O)c2cc(F)ccc2/C1=C\c1cccc(Oc2ccc(C)cc2)c1 :: 30 to 50%
2) CC1=C(CC(=O)O)c2cc(Br)ccc2/C1=C\c1ccc(Oc2ccc(Cl)cc2)cc1 :: ≥ 50%
3) CC1=C(CC(=O)O)c2cc(F)cc(F)c2/C1=C\c1cccc(COc2ccccc2)c1 :: 30 to 50%
4) CC1=C(CC(=O)O)c2cc(Cl)c(Cl)cc2/C1=C\c1ccc(Oc2ccc(F)cc2)cc1 :: ≥ 50%
5) CC1=C(CC(=O)O)c2cc(F)c(F)cc2/C1=C\c1ccc(COc2ccc(F)cc2)cc1 :: ≥ 50%

(Q) Entry CC1=C(CC(=O)O)c2cc(F)ccc2/C1=C\c1cccc(C(O)c2ccccc2)c1 (centres unmarked) , system B16F10 (malignant melanoma): what inhibition at 10 µM was measured?
(A) 30 to 50%

(Q) Recorded inhibition at 10 µM for `CCc1ccc2c(c1)C(CC(=O)O)=C(C)/C2=C/c1ccc(COCc2ccc(Cl)cc2)cc1` with B16F10 (malignant melanoma), please?
(A) ≥ 50%

(Q) What is its inhibition at 10 µM for B16F10 (malignant melanoma)? Entry: `O=C(O)CC1=C(CC2CCCC2)/C(=C/c2cccc(Oc3ccccc3)c2)c2ccc(F)cc21`
(A) ≥ 50%

(Q) Please provide the recorded inhibition at 10 µM for `COc1ccc2c(c1)/C(=C\c1ccc(Oc3ccc(F)cc3)cc1)C(Cc1ccccc1)=C2CC(=O)O` , tested on B16F10 (malignant melanoma).
(A) ≥ 50%

----------
# Tested on: B16F10 (malignant melanoma)
# experimental.details: Antiproliferative activity (CCK-8 cell viability), B16F10
# Type: cell-based
# run.parameters: Mus musculus, B16-F10, Compound concentration: 10 μM, 72 h, read-out: Antiproliferative activity in cancerous cells, B16F10 (inhibition of cell growth)
measured.attribute: inhibition at 10 µM

1) CC1=C(CC(=O)NCCN2CCOCC2)c2cc(F)ccc2/C1=C\c1ccc(Oc2ccc(F)cc2)cc1 :: < 30%

(Q) For B16F10 (malignant melanoma), provide inhibition at 10 µM of `CC1=C(CC(=O)O)c2cc(F)ccc2/C1=C/c1cccc(Oc2cccc(Cl)c2)c1` please.
(A) < 30%

(Q) Entry `CC1=C(CC(=O)O)c2c(F)ccc(F)c2/C1=C\c1ccc(C(C)C)cc1` , system B16F10 (malignant melanoma): what inhibition at 10 µM was measured?
(A) ≥ 50%

(Q) Tell me reported inhibition at 10 µM for `CC1=C(CC(=O)O)c2cc(F)ccc2/C1=C\c1ccc(COc2ccc(Cl)cc2)cc1C` , tested with B16F10 (malignant melanoma).
(A) 30 to 50%

(Q) Param readout= inhibition at 10 µM; system= B16F10 (malignant melanoma); entry= `CC1=C(CC(=O)O)c2cc(F)ccc2/C1=C\c1cccc(COc2cccc(C(C)(C)C)c2)c1` ; returns value.
(A) ≥ 50%

(Q) Query the reported inhibition at 10 µM for B16F10 (malignant melanoma); item: `CC1=C(CC(=O)O)c2cc(F)ccc2/C1=C\c1cccc(Sc2ccc(F)cc2)c1`
(A) ≥ 50%

(Q) Form field - read-out: inhibition at 10 µM; system: B16F10 (malignant melanoma); submitted item: `COc1ccc(CCCc2ccc(/C=C3/C(C)=C(CC(=O)O)c4cc(Cl)ccc43)cc2)cc1`
(A) ≥ 50%

(Q) inhibition at 10 µM of `O=C(O)CC1=C(Cc2ccc(C(F)(F)F)cc2)/C(=C/c2cccc(Oc3ccccc3)c2)c2ccc(F)cc21` on B16F10 (malignant melanoma)?
(A) ≥ 50%

(Q) Give B16F10 (malignant melanoma) inhibition at 10 µM for `CC1=C(CC(=O)O)c2cc(F)ccc2/C1=C/c1ccc(Oc2ccc(F)cc2Cl)cc1`
(A) 30 to 50%

(Q) What is its inhibition at 10 µM for B16F10 (malignant melanoma)? Entry: `CCCC1=C(CC(=O)O)c2cc(F)ccc2/C1=C\c1cccc(COc2ccccc2)c1`
(A) ≥ 50%

(Q) # returns recorded inhibition at 10 µM (system: B16F10 (malignant melanoma)) for `CC1=C(CC(=O)O)c2ccc(F)c(F)c2/C1=C/c1cccc(Oc2ccccc2)c1`
(A) ≥ 50%

(Q) Please provide the recorded inhibition at 10 µM for `CC1=C(CC(=O)O)c2cc(F)ccc2/C1=C\c1cccc(CS(=O)(=O)c2ccc(F)cc2)c1` , tested on B16F10 (malignant melanoma).
(A) ≥ 50%

(Q) Lookup: inhibition at 10 µM / B16F10 (malignant melanoma) / `CC1=C(CC(=O)O)c2c(F)cccc2/C1=C\c1ccc(COc2ccccc2)cc1`
(A) 30 to 50%

(Q) Find the measured inhibition at 10 µM: item `CC1=C(CC(=O)O)c2cc(F)ccc2/C1=C\c1ccc(COCc2ccccc2)cc1` , target or system B16F10 (malignant melanoma).
(A) ≥ 50%
